System: MS2 coat protein
Experiment: apparent Kd, MS2 coat protein; higher = weaker binding; RNA-MaP array
Conditions: designed as: OFF switch for theophylline; no ligand
Mark yes (1) for reported apparent Kd of 30 nM or greater; mark no (0) for anything smaller.

CUCGGAACAAUCGAUACCAGUUCUCAUGGAUUGCAGCAGUACAUGAGGAUCACCCAUGUAAACCCUUGGCAGCGAAGAACAAGAC : yes (1)
UUUUACGCAAGUAAUUCCCGGGAACCGGAUACCAGCUCCUCCAACAGCCCUUGGCAGCCGACCACAUGAGGAUCACCCAUGUUUC : no (0)
CAAGAAUGACGUACAGAUAACAAUAACGAUACCAGUACAUCAUUAUACCCUUGGCAGCGUUUCACAUGAGGAUCACCCAUGUACA : no (0)
CAUCAUGGGCUUGGACAAAUUGUGCUUGAUACCAGAAAUCACCGGUUCCCUUGGCAGCAACCCACAUGAGGAUCACCCAUGUGGA : no (0)
CAGCAACAAUUGGAUACCAGCCAUUACAGGUAUCAUUAUAACAUGAGGAUCACCCAUGUAGGCCCUUGGCAGCCAUUGGUGUAAG : yes (1)

----------
Test system: MS2 coat protein
Assay: apparent Kd, MS2 coat protein; higher = weaker binding; RNA-MaP array; tryptophan 2.4 mM where present
Conditions: designed as: ON switch for tryptophan; no ligand
metric: apparent Kd (nM)

UAACAUGAGGAUCACCCAUGUUUAGAAGAACGAGGACCGGUACGGCCGCCACUCGAAAAGUGGAAGAAAAGAGGGAUAGAAUGAU : 12.2
AAUACCGGAUCGGCCGCCACUGGUUGGCCCUGUGUACAUGAGGAUCACCCAUGUCCAUCCCAGACCAGGACCGGGAUCUUUGUGU : 15.8
GGCUAUACUACGGCCGCCACUGAACAUGAGGAUCACCCAUGUAAUGUUCAGAUUUUUUUUUUUUACAGGACCGGGUAGAAUUGCC : 195
AGAGUCUAGUCGGCCGCCACUCAUGUCCAAAGGACAUGAGGAUCACCCAUGUACCAAUGGUACAUGAGGACCGGGACUGGACUCA : 27.7
AGAGUCUAGUCGGCCGCCACUCAUGUCCAAUGGACAUGAGGAUCACCCAUGUACCGAAGGUACAUGAGGACCGGGACUGGACUCA : 153
CACGAAAGAUCGGCCGCCACUCAUGUUUCUUACAUGAGGAUCACCCAUGUAUUUUCUUUCUUUUAGAGGACCGGGAUUGAGCGUG : 155
GGGUGGUAGGCGGCCGCCACUGAUUUUCAUUCCUGGAUGACAUGAGGAUCACCCAUGUUUACGGGCAGGACCGGGCCUGCUGUGG : 57.3
UAAUGCAGGUCGGCCGCCACUACACACAUGAGGAUCACCCAUGUAGUUACUGGGUGAAGUGGCAGUAGGACCGGGACCUGCAUAC : 372
UAAACUACACAUGAGGAUCACCCAUGUGGCCGAGGACCGGUACGGCCGCCACUCGUGUGUUAAUAAUAGAACUGCAAGGUUCUGU : 183
AGAGUCUAGUCGGCCGCCACUCAUGUCCAAUGGACAUGAGGAUCACCCAUGUACCAAAGGUACAUGAGGACCGGGACUGGACUCA : 47.7
CGAAUAUAGACGGCCGCCACUCUACAAACAUGAGGAUCACCCAUGUUCACAUAGUGGAAACACAUGAGGACCGGGUCAUAGGCUU : 22.6
UUAAUUAUUGAAUCGUAUUGGUAUUAAGAACGAGGACCGGUACGGCCGCCACUCGUGAUAUACAUGAGGAUCACCCAUGUUAGCA : 14.8
CGCACAUGAGGAUCACCCAUGUGAGGGCGUCGAGGACCGGUACGGCCGCCACUCGCAGGACAUGAGGAUCACCCAUGUGCCGCCG : 116
AGCCACUCGAGUGAUCCUCACGAGUGGCUACGAGGACCGGUACGGCCGCCACUCGAAUUAACAUGAGGAUCACCCAUGUAAUCUC : 102
CGCGCGACAUGAGGAUCACCCAUGUUCCCUCGAGGACCGGUACGGCCGCCACUCGAGGACAUGAGCAUCAGCCAUGUACCGGUCA : 51.6
